// reported viability at 20 h, 10 µM for each item listed
experiment: Cytotoxicity against Balb/c mouse BMDC assessed as cell viability at 10 uM incubated for 20 hrs by MTT assay (reference value: 100 +/-0.6%); assay type: toxicity, cell-based; conditions: BMDC (bone marrow-derived dendritic cells), read-out: Activity

{"columns": ["STRUCTURE SMILES STRING", "UNIT TAG", "viability at 20 h, 10 µM"],
 "data": [
  ["CCOC(=O)c1c(NS(=O)(=O)c2cccc3nsnc23)sc2c1CCN(C(=O)OC(C)(C)C)C2", "%", 104],
  ["COC(=O)c1c(NS(=O)(=O)c2cccc3nsnc23)sc(C)c1C", "%", 114],
  ["CCCCCCOC(=O)c1c(NS(=O)(=O)c2cccc3nsnc23)sc(C)c1C", "%", 106],
  ["CCOC(=O)c1c(NS(=O)(=O)c2cccc3nsnc23)sc(C)c1C", "%", 114],
  ["CCOC(=O)c1c(NS(=O)(=O)c2cccc3nsnc23)sc2ccccc12", "%", 99.1],
  ["CCOC(=O)c1c(NS(=O)(=O)c2cccc3nc(O)[nH]c23)sc(C)c1C", "%", 88.1]
]}
